Data provenance: patent US7825128B2

- experimental.system: CDK2/CycE (Homo sapiens, UniProt P24941)
- Construct: GST
- experimental.protocol: CDK2/CycE kinase assay
- run.conditions: 0.5 μM ATP, Histone IIIS substrate
measured.quantity: IC50 (µM)
The reply should contain only the number, in µM.

(Q) Tell me IC50 reported for CCS(=N)(=O)c1ccc(Nc2ncc(-c3ccsc3)c(N[C@H](CO)CC(C)C)n2)cc1 (mixture of isomers)
(A) 3

* * *

- experimental.system: Tie-2 (Homo sapiens)
- Construct: consisting of GST and the intracellular domain of Tie-2
- Sequence (Q02763 770-1124 limits assumed, species assumed): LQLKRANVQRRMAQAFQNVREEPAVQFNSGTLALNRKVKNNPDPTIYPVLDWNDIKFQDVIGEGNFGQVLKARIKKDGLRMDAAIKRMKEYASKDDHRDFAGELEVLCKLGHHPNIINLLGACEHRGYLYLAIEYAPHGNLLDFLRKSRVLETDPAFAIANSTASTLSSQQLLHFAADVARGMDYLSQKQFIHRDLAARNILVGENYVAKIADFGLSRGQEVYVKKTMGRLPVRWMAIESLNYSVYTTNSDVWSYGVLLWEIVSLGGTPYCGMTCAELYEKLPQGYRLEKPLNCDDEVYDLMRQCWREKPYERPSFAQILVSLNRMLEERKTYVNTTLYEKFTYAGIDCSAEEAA
- experimental.protocol: Tie-2 kinase assay without prior activation of the kinase
- run.conditions: 10 μM ATP
measured.quantity: pIC50
Hey, just a heads up that pIC50 is the negative log base 10 of the concentration in molar.

(Q) Tell me pIC50 reported for CC[C@H](CO)Nc1nc(Nc2ccc(S(C)(=N)=O)c(Br)c2)ncc1-c1cccs1 (mixture of isomers)
(A) 5.52

* * *

- experimental.system: Aurora-C (Homo sapiens)
- Sequence (Q9UQB9 whole entry): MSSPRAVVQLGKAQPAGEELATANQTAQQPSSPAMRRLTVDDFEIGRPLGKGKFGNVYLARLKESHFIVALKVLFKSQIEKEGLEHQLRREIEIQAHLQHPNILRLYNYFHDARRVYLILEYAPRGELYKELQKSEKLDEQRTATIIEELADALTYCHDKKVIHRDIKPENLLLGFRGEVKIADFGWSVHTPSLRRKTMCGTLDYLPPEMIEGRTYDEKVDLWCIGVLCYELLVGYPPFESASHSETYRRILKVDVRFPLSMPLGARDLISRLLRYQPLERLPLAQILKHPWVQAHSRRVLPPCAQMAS
measured.quantity: pIC50
Hey, just a heads up that pIC50 is the negative log base 10 of the concentration in molar.

(Q) Tell me pIC50 reported for CCOC(=O)N=S(C)(=O)c1ccc(Nc2ncc(-c3cccs3)c(N[C@H](C)CO)n2)cc1 (mixture of isomers) [Example 1.1]
(A) 5.70
